target: 2-Hydroxyacid oxidase 1 (Mus musculus); test: Inhibition of glycolate oxidase in C57BL/6 Agxt1-/- mouse hepatocytes using glycolate as substrate assessed as relative oxalate level at 10 uM after 24 hrs; format: cell-based
Give fold change (FC) for every item shown.
Give your answer as a number; write no unit.

State measured fold change (FC) of the molecule COc1ccc(COc2ccc(-c3ccc(C(=O)O)c(O)c3)cc2)cc1 with 2-Hydroxyacid oxidase 1 (Mus musculus). 0.9

State measured fold change (FC) of the molecule O=C(O)c1cc(-c2ccc(CO)o2)ccc1O with 2-Hydroxyacid oxidase 1 (Mus musculus). 0.88

State measured fold change (FC) of the molecule O=C(O)c1ccc(-c2ccncc2)cc1O with 2-Hydroxyacid oxidase 1 (Mus musculus). 0.88

###

molecular target: 2-Hydroxyacid oxidase 1 (Mus musculus); experiment: Inhibition of glycolate oxidase in C57BL/6 Agxt1-/- mouse hepatocytes using glycolate as substrate assessed as relative oxalate level at 10 uM after 24 hrs; type: cell-based
Give fold change (FC) for every item shown.
Give your answer as a number; write no unit.

Name the recorded fold change (FC) of the molecule listed here: O=Cc1ccc(-c2ccc(O)c(C(=O)O)c2)o1 0

Name the recorded fold change (FC) of the molecule listed here: O=Cc1ccc(-c2ccc(C(=O)O)c(CO)c2)o1 0.98

Name the recorded fold change (FC) of the molecule listed here: O=C(O)c1ccc(-c2ccc([N+](=O)[O-])cc2)cc1O 0.91

Name the recorded fold change (FC) of the molecule listed here: O=C(O)c1ccc(-c2ccoc2)cc1O 1.02

Name the recorded fold change (FC) of the molecule listed here: O=C(O)c1cc(Sc2nnnn2-c2ccccc2)c2ccccc2c1O 0.99

Name the recorded fold change (FC) of the molecule listed here: CC(=O)c1ccc(-c2ccc(C(=O)O)c(O)c2)s1 0.89

Name the recorded fold change (FC) of the molecule listed here: O=C(O)c1ccc(-c2cccs2)cc1O 0.74

Name the recorded fold change (FC) of the molecule listed here: O=C(O)c1cc2cc(Br)ccc2cc1O 0.99

Name the recorded fold change (FC) of the molecule listed here: O=C(O)c1ccc(-c2ccc(OCc3ccccc3)cc2)cc1O 1.11
